# System: SARS-CoV-2 (Delta, B.1.617.2)
# experimental_protocol: microbe, parasite or virus in culture
# Assay type: cell-based
# test_parameters: delta, 1 uM, Vero E6, replicates
Think of 80% as a floor: if % Inhibition stands on it or above, it is label 1; beneath it, label 0.

smiles_code: N#C[C@@]1(c2ccc3c(N)ncnn23)O[C@H](COC(=O)c2ccccc2)[C@@H](O)[C@H]1O
cat: label 0
--
smiles_code: CC(C)CC(=O)OC[C@H]1O[C@@](C#N)(c2ccc3c(N)ncnn23)[C@H](O)[C@@H]1O
cat: label 1
--
smiles_code: CC(C)C(=O)OC[C@H]1O[C@@](C#N)(c2ccc3c(N)ncnn23)[C@H](O)[C@@H]1O
cat: label 1
--
smiles_code: CCCC(=O)OC[C@H]1O[C@@](C#N)(c2ccc3c(N)ncnn23)[C@H](O)[C@@H]1O
cat: label 1
